# credit: the supplement of paper PMC10567573

B1: TOR1AIP2 (parent)
chain: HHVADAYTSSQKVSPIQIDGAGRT

variants of: B1; assay: protein stability index of a GFP-peptide fusion (GPS, HEK-293T) (PSI 1-6); higher = more stable; conditions: c terminus: a fixed tail appended;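 further: lentivirally expressed fusions sorted by FACS into six bins by GFP to DsRed ratio, PSI derived from sequencing read proportions per bin multiplied by bin number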
Label scheme for protein stability index: group 1: < 3; group 2: ≥ 3 and < 4; group 3: ≥ 4

{"columns": ["variantString", "groupLabel"],
 "data": [
  ["A21M", "group 2"],
  ["Q17R", "group 2"],
  ["D19K", "group 2"],
  ["D19Q", "group 2"],
  ["S10D", "group 3"],
  ["A21T", "group 2"],
  ["D5M", "group 1"],
  ["V13M", "group 2"],
  ["V3I", "group 3"],
  ["K12N", "group 2"],
  ["A4W", "group 2"],
  ["G22W", "group 1"],
  ["S9K", "group 3"],
  ["D5K", "group 2"],
  ["A6I", "group 2"],
  ["H2E", "group 3"],
  ["R23T", "group 2"],
  ["S9N", "group 2"],
  ["D5L", "group 1"],
  ["A4P", "group 1"],
  ["H2Q", "group 1"],
  ["S9I", "group 1"],
  ["T24V", "group 2"],
  ["S10R", "group 1"],
  ["A21V", "group 2"],
  ["H2T", "group 2"],
  ["Q11L", "group 2"],
  ["V3Y", "group 1"],
  ["S10V", "group 1"],
  ["I16E", "group 3"],
  ["Y7A", "group 3"],
  ["R23V", "group 2"],
  ["H1P", "group 2"]
]}
